Experiment: label from the status in PepcDB records
PROPERTY_MEASURED: protein production

RESIDUE_CODES	PROPERTY_MEASURED	RESULT
MWTVLIINLLIAIVLTYFGLKERNENFSWFTASGAFIVFGLILLISTIPVFNDFNESSLLMFIGGILSILGIITLIIGLVTRAVKIVSLRDVAIAMEIAAVCVIYLIHNLDLSFINLFVPELSVIIGFLLFVFSRKKN	protein production	failed
MLSRLFLLFALVPFLELYLLVQVGTVIGAAPTILLVILTAVVGAWLARTQGLGVMARVQNDLARGIMPGQALIDGFCILLAGLLLLTPGFLTDVVGLLLLLPPFRALLASRLQRHFAVRYASSGTTAEGGHFIVYGSSGPAAHEEPRHAVVIDTQPIDSSSAATGLADDTKPLGDAQPSGDGRPRS	protein production	failed
IPGPGFTAGAQGSCSLRCGAQDGLCSCHPTCSGLGTCCEDFLDYCLEILPSSGSMMGGKDFVVQHLKWTDP	protein production	not failed
MWTTRLVRSGLAALCAAVLVSSGCARFNDAQSQPFTTEPELRPQPSSTPPPPPPLPPVPFPKECPAPGVMQGCLESTSGLIMGIDSKTALVAERITGAVEEISISAEPKVKTVIPVDPAGDGGLMDIVLSPTYSQDRLMYAYISTPTDNRVVRVADGDIPKDILTGIPKGAAGNTGALIFTSPTTLVVMTGDAGDPALAADPQSLAGKVLRIEQPTTIDQTPPTTALSGIGSGGGLCIDPVDGSLYVADRTPTADRLQRITKNSEVSTVWTWPDKPGVAGCAAMDGTVLVNLINTKLTVAVRLAPSTGAVTGEPDVVRKDTHAHAWALRMSPDGNVWGATVNKTAGDAEKLDDVVFPLFPQGGGFPRNNDDKT	protein production	failed
MTDPSSTLRLRGLLAEIVAAPLTRTVALLALCSAYIQGPLTKIFDFPGAIAEMNHFGLQPAAAFAVFVIIFELTASAMVVTGVLRWVGALALSGFTLLATFIALRFWEMAPGMDRMMATNAFFEHLGLAGAFVIVAAIDLTKGTGK	protein production	not failed

----------
Experiment: label from the status in PepcDB records

RESIDUE_CODES	protein production
MGDMIFGILTWLPGLILAITLHEAAHGYVASALGDQTARLLGRVTLNPIRHVDPFGTLVLPGLLFLVGAPFLFGWAKPVPVDYRNLRHPKRDMAWVALAGPGMNIFLAVVSAAALHGALLLPDPAADWLITTLQKSVLINCVLAVFNMIPVPPLDGGRVLVGILPMRAAVVVARMERVGMLALIGVIFLLPLALSQFGVDFDPFSRIIGPVVRALLGAVYTTAGIPLF	failed
MTIAFLVLVVALASGFAFLNGFRDVSNAVALSTRTRALTPSIAVLLAAIFNFVGAMLSGTFILAFTQSWITLPEGTSGLTMLASALTAAILWGVYAWWRGIPLSSTNSLIGGLIGAGAASVLVGGNAVGGMDNVLLTQVALPLVLSPVIAFVAAYLLVWPVTWAARYTQPNVVNRRFRRAQAISTAAVAFGHGLQDGQRTAAVMVLAMVAAGLSSGSDVPLWILLVTAIMLTAGTMFGGWRISHTLGHKLIRVDPLRGFVAQTLTSVMLFIGAIGFHLPLSTTHTLTAAVLGSGVNQRFHTVNRRLVRRVLLFWVATPLITAAAAFILELAFSPLADL	failed
